Test system: LC3
Assay: LC3 marker assay (LC3-I to LC3-II conversion immunoblot);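 also: HeLa cells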
Type: cell-based
Parameters: key: −: activity not reported; 0: decreased vs. WT; +: similar to WT; ++: modest increase vs. WT; +++: significant increase vs. WT
Details: 100 μM; Table 8, control compound T25; second symbol
Where no end group is shown, it is not given here.
metric name: Activity (μM) 100, LC3 assay activity

{"seq": "VCNATCHIWH [Compound 36]", "Activity (μM) 100, LC3 assay activity": "0/0"}
{"seq": "VWNATFHIWH (not fully specified (N-terminus, C-terminus)) [Compound 5, likely pa-10mer]", "Activity (μM) 100, LC3 assay activity": "0/0"}
{"seq": "VWNATFHIWHD (not fully specified (N-terminus, C-terminus)) [Compound 6, likely pa-11mer]", "Activity (μM) 100, LC3 assay activity": "0/0"}
{"seq": "VCNATCHIWH [Compound 35]", "Activity (μM) 100, LC3 assay activity": "++"}

Now consider a different sequence.
Query block: Look up Activity (μM) 100, LC3 assay activity: VCNACFHIWH [Compound 52]
Result block: +

----------
Tested on: LC3
Assay: LC3 marker assay (LC3-I to LC3-II conversion immunoblot);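 also: HeLa cells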
Assay type: cell-based
Set-up: key: −: activity not reported; 0: decreased vs. WT; +: similar to WT; ++: modest increase vs. WT; +++: significant increase vs. WT
Settings: 20 μM; Table 3, control vehicle; second symbol
Where no end group is shown, it is not given here.
metric name: Activity (μM) 20, LC3 assay activity

Check out these entries, answers already filled in.
{"seq": "VCNATCHIWH [Compound 1]", "tested target": "LC3", "metric name": "Activity (μM) 20, LC3 assay activity", "recorded result": "0/0"}
{"seq": "VCNACFHIWH [Compound 4]", "tested target": "LC3", "metric name": "Activity (μM) 20, LC3 assay activity", "recorded result": "0/0"}
{"seq": "VCNATCHIWH [Compound 2]", "tested target": "LC3", "metric name": "Activity (μM) 20, LC3 assay activity", "recorded result": "0/0"}
{"seq": "VCNACFHIWH [Compound 10]", "tested target": "LC3", "metric name": "Activity (μM) 20, LC3 assay activity", "recorded result": "++"}
{"seq": "VCNACFHIWH [Compound 3]", "tested target": "LC3", "metric name": "Activity (μM) 20, LC3 assay activity", "recorded result": "+++"}

Query block: Look up Activity (μM) 20, LC3 assay activity: VWNATFHIWHD (not fully specified (N-terminus, C-terminus)) [Compound 6, likely pa-11mer]
Result block: 0/0

Query block: Continue with VWNATFHIWH (not fully specified (N-terminus, C-terminus)) [Compound 5, likely pa-10mer]
Result block: 0/0

Query block: Continue with YGRKKRRQRRRGGVWNATFHIWHD [8] (not fully specified (N-terminus, C-terminus)) [Compound 8]
Result block: ++

Query block: Continue with VCNACFHIWH [Compound 9]
Result block: 0/0

----------
Test system: LC3
Experiment: LC3 marker assay (LC3-I to LC3-II conversion immunoblot);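 also: HeLa cells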
Format: cell-based
Parameters: key: −: activity not reported; 0: decreased vs. WT; +: similar to WT; ++: modest increase vs. WT; +++: significant increase vs. WT
Conditions: 50 μM; Table 7, control compound T25; second symbol
metric name: Activity (μM) 50, LC3 assay activity

Check out these entries, answers already filled in.
{"seq": "VCNATCHIWH [Compound 32]", "Activity (μM) 50, LC3 assay activity": 0}
{"seq": "VCNATCHIWH [Compound 30]", "Activity (μM) 50, LC3 assay activity": "0/0"}
{"seq": "VCNATCHIWH [Compound 28]", "Activity (μM) 50, LC3 assay activity": "0/0"}
{"seq": "VCNATCHIWH [Compound 29]", "Activity (μM) 50, LC3 assay activity": 0}

Query block: Look up Activity (μM) 50, LC3 assay activity: VCNATCHIWH [Compound 31]
Result block: 0/0

Query block: Continue with VCNATCHIWH [Compound 27]
Result block: 0/0

Query block: Continue with VCNACFHIWH [Compound 4]
Result block: ++/++

----------
Tested on: LC3
Assay: LC3 marker assay (LC3-I to LC3-II conversion immunoblot);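 also: HeLa cells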
Type: cell-based
Parameters: key: −: activity not reported; 0: decreased vs. WT; +: similar to WT; ++: modest increase vs. WT; +++: significant increase vs. WT
Conditions: 100 μM; Table 8, control compound T25; second symbol
Bridges are numbered along the chain shown (N, C = ends). Where no end group is shown, it is not given here. [ ]: non-standard residue; d: D form. MP = not defined here
metric name: Activity (μM) 100, LC3 assay activity

{"seq": "VCNATCHIRIWH (H-V[dC]NAT[dC]HIRIWH; linker 2-6 via MP (inferred); not fully specified (C-terminus); reading uncertain) [Compound 37]", "tested target": "LC3", "metric name": "Activity (μM) 100, LC3 assay activity", "recorded result": "0/0"}
{"seq": "VCNACFHIWH [Compound 53]", "tested target": "LC3", "metric name": "Activity (μM) 100, LC3 assay activity", "recorded result": "++"}
{"seq": "VCNATCHIWH [Compound 1]", "tested target": "LC3", "metric name": "Activity (μM) 100, LC3 assay activity", "recorded result": "+"}
{"seq": "VCNATCHIWR (V[dC]NAT[dC]HIWR; cysteine pairing not given here) [Compound 38]", "tested target": "LC3", "metric name": "Activity (μM) 100, LC3 assay activity", "recorded result": "0/0"}
{"seq": "VCNATCHIWH [Compound 51]", "tested target": "LC3", "metric name": "Activity (μM) 100, LC3 assay activity", "recorded result": "+++/+++"}
{"seq": "RCNARCRIWR (H-R[dC]NAR[dC]RIWR; not fully specified (C-terminus); cysteine pairing not given here) [Compound 40]", "tested target": "LC3", "metric name": "Activity (μM) 100, LC3 assay activity", "recorded result": "0/0"}
{"seq": "VCNATCHIWH [Compound 50]", "tested target": "LC3", "metric name": "Activity (μM) 100, LC3 assay activity", "recorded result": "+++"}
{"seq": "VCNATCHIWH [Compound 34]", "tested target": "LC3", "metric name": "Activity (μM) 100, LC3 assay activity", "recorded result": "+++/+++"}
{"seq": "VCNATCHIWH [Compound 33]", "tested target": "LC3", "metric name": "Activity (μM) 100, LC3 assay activity", "recorded result": "+++/+++"}
{"seq": "VCNATCHIWH [Compound 30]", "tested target": "LC3", "metric name": "Activity (μM) 100, LC3 assay activity", "recorded result": "0/0"}

Now consider a different sequence.
Query block: Look up Activity (μM) 100, LC3 assay activity: VCNATCHIWH [Compound 44]
Result block: 0/0

----------
Tested on: LC3
Assay: LC3 marker assay (LC3-I to LC3-II conversion immunoblot);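 also: HeLa cells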
Type: cell-based
Parameters: key: −: activity not reported; 0: decreased vs. WT; +: similar to WT; ++: modest increase vs. WT; +++: significant increase vs. WT
Details: 30 μM; Table 8, control compound T25; second symbol
Where no end group is shown, it is not given here.
metric name: Activity (μM) 30, LC3 assay activity

{"seq": "VCNACFHIWH [Compound 69]", "recorded result": "0/0"}
{"seq": "VCNACFHIWH [Compound 57]", "recorded result": 0}
{"seq": "VCNATCHIWH [Compound 33]", "recorded result": "++"}
{"seq": "VWNATFHIWHD (not fully specified (N-terminus, C-terminus)) [Compound 6, likely pa-11mer]", "recorded result": "0/0"}

Now consider a different sequence.
Query block: Look up Activity (μM) 30, LC3 assay activity: VCNATCHIWH [Compound 35]
Result block: +

----------
Test system: p62
Experiment: p62 degradation assay (p62/actin immunoblot);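 also: HeLa cells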
Assay type: cell-based
Set-up: key: −: activity not reported; 0: decreased vs. WT; +: similar to WT; ++: modest increase vs. WT; +++: significant increase vs. WT
Conditions: 30 μM; Table 8, control compound T25; first symbol
Where no end group is shown, it is not given here.
metric name: Activity (μM) 30, p62/actin assay activity

Check out these entries, answers already filled in.
{"seq": "VCNACFHIWH [Compound 71]", "recorded result": 0}
{"seq": "VCNACFHIWH [Compound 69]", "recorded result": "0/0"}
{"seq": "VCNATCHIWH [Compound 33]", "recorded result": "+++"}
{"seq": "VCNACFHIWH [Compound 56]", "recorded result": "+"}
{"seq": "VCNACFHIWH [Compound 72]", "recorded result": "0/0"}
{"seq": "VWNATFHIWH (not fully specified (N-terminus, C-terminus)) [Compound 5, likely pa-10mer]", "recorded result": "0/0"}

Query block: Look up Activity (μM) 30, p62/actin assay activity: VCNATCHIWH [Compound 30]
Result block: 0/0

Query block: Continue with VWNATFHIWHD (not fully specified (N-terminus, C-terminus)) [Compound 6, likely pa-11mer]
Result block: 0/0

Query block: Continue with VCNATCHIWH [Compound 2]
Result block: 0/0

Query block: Continue with VWNATCHIWC [Compound 59]
Result block: 0/0

Query block: Continue with VCNACFHIWH [Compound 73]
Result block: 0

Query block: Continue with VCNACFHIWH [Compound 74]
Result block: 0

Query block: Continue with VCNATCHIWH [Compound 34]
Result block: +

Query block: Continue with VCNACFHIWH [Compound 3]
Result block: 0/0

Query block: Continue with VCNACFHIWH [Compound 54]
Result block: ++

Query block: Continue with VCNACFHIWH [Compound 70]
Result block: 0/0

Query block: Continue with VCNACFHIWH [Compound 57]
Result block: +

Query block: Continue with VCNATCHIWH [Compound 35]
Result block: 0

Query block: Continue with VCNACFHIWH [Compound 55]
Result block: ++
